Values were extracted from the supplement of paper PMC9023506.

Test system: Danio rerio larvae (5 dpf)
Test method notes: excitability to 1-s acoustic pulses, difference vs DMSO (percentage points (treated minus DMSO)); higher = more of the behaviour than the DMSO vehicle control
Study conditions: 10 µM; exposure time: 3 h pre-incubation + 3 h imaging
Structures can show the parent of a compound that is named as a salt.
Quick rule for you: excitability to 1-s acoustic pulses at 2 or higher means 1.0, lower means 0.0.

Compound: CC(C)(C(=O)O)c1ccc(C(O)CCCN2CCC(C(O)(c3ccccc3)c3ccccc3)CC2)cc1 (centres undefined) [Fexofenadine hydrochloride]
Assigned class: 0.0

Compound: Cc1cc2c(s1)Nc1ccccc1N=C2N1CCN(C)CC1
Assigned class: 1.0

Compound: CC1=Nc2ccc(Cl)cc2S(=O)(=O)N1 [Diazoxide]
Assigned class: 0.0

Compound: CN(CCOc1ccc(CC2SC(=O)NC2=O)cc1)c1ccccn1 (centres undefined)
Assigned class: 1.0

Compound: Nc1nc2[nH]cc(CCc3ccc(C(=O)N[C@@H](CCC(=O)O)C(=O)O)cc3)c2c(=O)[nH]1
Assigned class: 1.0

Compound: CN1CC2c3ccccc3Oc3ccc(Cl)cc3C2C1 (centres undefined) [Asenapine maleate]
Assigned class: 1.0

Compound: Cc1ccc(-c2cc(C(F)(F)F)nn2-c2ccc(S(N)(=O)=O)cc2)cc1
Assigned class: 1.0

Compound: CCCCC1=NC2(CCCC2)C(=O)N1Cc1ccc(-c2ccccc2-c2nnn[nH]2)cc1
Assigned class: 0.0

Compound: NS(=O)(=O)Cc1noc2ccccc12 [Zonisamide]
Assigned class: 1.0
